All figures here come from patent US20110040086A1.

test system: S. aureus 33490; assay: agar diffusion test (Test System II, multi-resistant germs); type: cell-based, Staphylococcus aureus; settings: Quantity n [μmol] 0.19
propertyName: Diameter of zone of inhibition (mm)
# value in mm; strip the unit string

Q: What value of Diameter of zone of inhibition on S. aureus 33490 does COC(=O)C1=C(NC(C(=O)NC2C(=O)N3C(C(=O)O)=C(C)CSC23)c2ccc(O)cc2)C(=O)C=CC1=O (stereo not shown) have?
Ans: 20

Q: Which Diameter of zone of inhibition is reported with S. aureus 33490 for this entry: N[C@@H](C(=O)N[C@@H]1C(=O)N2C(C(=O)O)=C(Cl)CS[C@H]12)c1ccccc1 [2c, Cefaclor, reference compound] ?
Ans: 32

Q: State its Diameter of zone of inhibition on S. aureus 33490: CC1=C(C(=O)O)N2C(=O)[C@@H](NC(=O)[C@H](N)c3ccc(O)cc3)[C@H]2SC1 [2a, Cefadroxil, reference compound]
Ans: 28

Q: Param readout= Diameter of zone of inhibition; system= S. aureus 33490; entry= CCOC(=O)C1=C(NC(C(=O)NC2C(=O)N3C(C(=O)O)=C(Cl)CSC23)c2ccccc2)C(=O)C=CC1=O (stereo not shown) ; returns value.
Ans: 24

---

test system: S. epidermidis 563; assay: agar diffusion test (Test System II, multi-resistant germs); assay type: cell-based, Staphylococcus epidermidis; conditions: Quantity n 0.019
propertyName: Diameter of zone of inhibition

Q: State its Diameter of zone of inhibition on S. epidermidis 563: CC1=C(C(=O)O)N2C(=O)[C@@H](NC(=O)[C@H](N)c3ccc(O)cc3)[C@H]2SC1 [2a, Cefadroxil, reference compound]
Ans: 24 mm

Q: Entry N[C@@H](C(=O)N[C@@H]1C(=O)N2C(C(=O)O)=C(Cl)CS[C@H]12)c1ccccc1 [2c, Cefaclor, reference compound] , system S. epidermidis 563: what Diameter of zone of inhibition was measured?
Ans: 30 mm

Q: What measured Diameter of zone of inhibition is associated with COC(=O)C1=C(NC(C(=O)NC2C(=O)N3C(C(=O)O)=C(C)CSC23)c2ccc(O)cc2)C(=O)C=CC1=O (stereo not shown) on S. epidermidis 563?
Ans: r

Q: Give S. epidermidis 563 Diameter of zone of inhibition for CCOC(=O)C1=C(NC(C(=O)NC2C(=O)N3C(C(=O)O)=C(Cl)CSC23)c2ccccc2)C(=O)C=CC1=O (stereo not shown)
Ans: 16 mm

---

Could you please report measured chromatographic logP for the items listed next?
experiment: logP value by HPLC according to Donovan et al.; conditions: HPLC with methanol/0.1% phosphoric acid gradient, pH 2
Note: the reply should be a number with no unit written.

Q: For the compound CCOC(=O)c1cc(O)ccc1O [2,5-dihydroxybenzoic acid ethylester] , what chromatographic logP is on record?
Ans: 2.65

Q: What value of chromatographic logP has been reported for the following compound? NC(=O)c1cc(O)ccc1O [2,5-dihydroxybenzamide]
Ans: -0.4

Q: Given the entry CC1=C(C(=O)O)N2C(=O)[C@@H](NC(=O)[C@H](N)c3ccc(O)cc3)[C@H]2SC1 [2a, Cefadroxil, reference compound] , report its measured chromatographic logP.
Ans: -3.5

Q: Recorded chromatographic logP of O=C(NCCO)c1cc(O)ccc1O , please.
Ans: -1.21

Q: Look up chromatographic logP: N[C@@H](C(=O)N[C@@H]1C(=O)N2C(C(=O)O)=C(Cl)CS[C@H]12)c1ccccc1 [2c, Cefaclor, reference compound]
Ans: -3.28
